Ki by entry:
# PROCEDURE TEXT: Inhibition of hepatitis C virus NS3 serine protease
# Design: species or system Hepacivirus hominis
*1 amine or outer side, *2 acyl side, *3 side chain or, on linkers, in order; H or OH if unused. Where a SMILES comes first, the peptide text is derived from it. [ ]: non-standard residue; d: D form. The star is where a group is joined. Pro(3S,4R-CCl2) = O=C(O)[C@H]1NC[C@H]2[C@@H]1C2(Cl)Cl; X3 = CCCC(N[*:1])C(=O)C(=O)[*:2]; Chg = N[C@H](C(=O)O)C1CCCCC1; Phg = N[C@H](C(=O)O)c1ccccc1; Boc = CC(C)(C)OC(=O)*

MOLECULE	Ki
CC(C)(C)OC(=O)N[C@H](C(=O)N1C[C@H]2[C@@H]([C@H]1C(=O)NC(CC1CCC1)C(=O)C(N)=O)C2(Cl)Cl)C1CCCCC1 (stereo partly drawn)	17 nM
CCCC(NC(=O)[C@@H]1[C@@H]2[C@H](CN1C(=O)[C@@H](NC(=O)OC(C)(C)C)C1CCCCC1)C2(Cl)Cl)C(=O)C(=O)NCC(=O)N[C@H](C(=O)N(C)C)c1ccccc1 (stereo partly drawn) (Boc-[Chg][Pro(3S,4R-CCl2)][X3]G[Phg]-NMe2)	15 nM

For this molecule ( C=CCCC(NC(=O)[C@@H]1[C@@H]2[C@H](CN1C(=O)[C@@H](NC(=O)NC(C)(C)C)C1CCCCC1)C2(Cl)Cl)C(=O)C(=O)NCC=C (stereo partly drawn) ), measured Ki is 44 nM

For this molecule ( CCCC(NC(=O)[C@@H]1[C@@H]2[C@H](CN1C(=O)[C@@H](NC(=O)OC(C)(C)C)C1CCCCC1)C2(Cl)Cl)C(=O)C(N)=O (stereo partly drawn) ), measured Ki is 36 nM

For this molecule ( CC(C)(C)NC(=O)N[C@H](C(=O)N1C[C@H]2[C@@H]([C@H]1C(=O)NC(CC1CCC1)C(=O)C(N)=O)C2(Cl)Cl)C(C)(C)C (stereo partly drawn) ), measured Ki is 7 nM

For this molecule ( CC(C)(C)NC(=O)N[C@H](C(=O)N1C[C@H]2[C@@H]([C@H]1C(=O)NC(CC1CCC1)C(=O)C(N)=O)C2(C)C)C(C)(C)C (stereo partly drawn) ), measured Ki is 14 nM

For this molecule ( CC(C)(C)OC(=O)N[C@H](C(=O)N1C[C@H]2[C@@H]([C@H]1C(=O)NC(CC1CCC1)C(=O)C(N)=O)C2(Cl)Cl)C(C)(C)C (stereo partly drawn) ), measured Ki is 9 nM

For this molecule ( CC(C)(C)OC(=O)N[C@H](C(=O)N1C[C@H]2[C@@H]([C@H]1C(=O)NC(CC1CCC1)C(=O)C(N)=O)C2(Cl)Cl)C1Cc2ccccc2C1 (stereo partly drawn) ), measured Ki is 60 nM

# credit: ChEMBL document CHEMBL1143105
